// reported growth at 10 µM per item
# Tested on: HT-29
# Protocol details: Growth inhibition of human HT-29 cells assessed as cell growth at 10^-5 M incubated for 48 hrs by sulforhodamine B assay relative to control
# Assay type: functional
# Condition set: HT-29, 48 h, read-out: Activity
Property name: growth at 10 µM (%)

O=Cc1ccc(C2NCCc3c2[nH]c2ccccc32)cc1 (stereo unspecified): 98.9
Cc1ccc(S(=O)(=O)N2CCc3c([nH]c4ccccc34)C2c2ccc(C=O)cc2)cc1 (stereo unspecified): 87.2
Cc1n[nH]c2c1C(c1ccc(C3NCCc4c3[nH]c3ccccc43)cc1)C(C#N)=C(N)O2 (stereo unspecified): 91.7
c1ccc2[nH]c(-c3ccc(C4NCCc5c4[nH]c4ccccc54)cc3)nc2c1 (stereo unspecified): 94.2
Cc1ccc(S(=O)(=O)N2CCc3c([nH]c4ccccc34)C2c2ccc(-c3nc4ccccc4[nH]3)cc2)cc1 (stereo unspecified): 87.2
c1ccc2c(c1)[nH]c1c(-c3ccc(-c4nccc5c4[nH]c4ccccc45)cc3)nccc12: 88.9

----------
// reported growth at 10 µM per item
# System: A498
# Protocol details: Growth inhibition of human A498 cells assessed as cell growth at 10^-5 M incubated for 48 hrs by sulforhodamine B assay relative to control
# Format: functional
# Condition set: A498, 48 h, read-out: Activity
Property name: growth at 10 µM (%)

c1ccc2c(c1)[nH]c1c(-c3ccc(-c4nccc5c4[nH]c4ccccc45)cc3)nccc12: 145
O=Cc1ccc(C2NCCc3c2[nH]c2ccccc32)cc1 (configuration not stated): 86.4
Cc1ccc(S(=O)(=O)N2CCc3c([nH]c4ccccc34)C2c2ccc(C=O)cc2)cc1 (configuration not stated): 84.6
Cc1n[nH]c2c1C(c1ccc(C3NCCc4c3[nH]c3ccccc43)cc1)C(C#N)=C(N)O2 (configuration not stated): 67.1
Cc1ccc(S(=O)(=O)N2CCc3c([nH]c4ccccc34)C2c2ccc(-c3nc4ccccc4[nH]3)cc2)cc1 (configuration not stated): 84.6
c1ccc2[nH]c(-c3ccc(C4NCCc5c4[nH]c4ccccc54)cc3)nc2c1 (configuration not stated): 104

----------
# Test system: SF-539
# Protocol details: Growth inhibition of human SF539 cells assessed as cell growth at 10^-5 M incubated for 48 hrs by sulforhodamine B assay relative to control
# Format: functional
# Condition set: SF-539, 48 h, read-out: Activity
Property name: growth at 10 µM (%)

c1ccc2[nH]c(-c3ccc(C4NCCc5c4[nH]c4ccccc54)cc3)nc2c1 (stereo unspecified): 102
Cc1ccc(S(=O)(=O)N2CCc3c([nH]c4ccccc34)C2c2ccc(C=O)cc2)cc1 (stereo unspecified): 90.2
O=Cc1ccc(C2NCCc3c2[nH]c2ccccc32)cc1 (stereo unspecified): 103
c1ccc2c(c1)[nH]c1c(-c3ccc(-c4nccc5c4[nH]c4ccccc45)cc3)nccc12: 109
Cc1n[nH]c2c1C(c1ccc(C3NCCc4c3[nH]c3ccccc43)cc1)C(C#N)=C(N)O2 (stereo unspecified): 92
Cc1ccc(S(=O)(=O)N2CCc3c([nH]c4ccccc34)C2c2ccc(-c3nc4ccccc4[nH]3)cc2)cc1 (stereo unspecified): 90.2

----------
// reported growth at 10 µM per item
# Test system: HCT-116
# Protocol details: Growth inhibition of human HCT116 cells assessed as cell growth at 10^-5 M incubated for 48 hrs by sulforhodamine B assay relative to control
# Type: functional
# Condition set: HCT-116, 48 h, read-out: Activity
Property name: growth at 10 µM (%)

c1ccc2c(c1)[nH]c1c(-c3ccc(-c4nccc5c4[nH]c4ccccc45)cc3)nccc12: 88.2
Cc1ccc(S(=O)(=O)N2CCc3c([nH]c4ccccc34)C2c2ccc(-c3nc4ccccc4[nH]3)cc2)cc1 (configuration not stated): 88.3
Cc1n[nH]c2c1C(c1ccc(C3NCCc4c3[nH]c3ccccc43)cc1)C(C#N)=C(N)O2 (configuration not stated): 76.5
c1ccc2[nH]c(-c3ccc(C4NCCc5c4[nH]c4ccccc54)cc3)nc2c1 (configuration not stated): 96.1
O=Cc1ccc(C2NCCc3c2[nH]c2ccccc32)cc1 (configuration not stated): 78.4
Cc1ccc(S(=O)(=O)N2CCc3c([nH]c4ccccc34)C2c2ccc(C=O)cc2)cc1 (configuration not stated): 88.3
